# Subject Of Test: human H-PGDS (Homo sapiens, UniProt O60760)
# Construct: Full length human H-PGDS cDNA (Invitrogen Ultimate ORF IOH13026) was amplified by PCR; 6-His (N); TEV protease cleavage site (N); made in house; host or cells: E. coli BL21 (DE3*) for H-PGDS; Sf9 insect cells (baculovirus) for COX-2
# Sequence (O60760 whole entry): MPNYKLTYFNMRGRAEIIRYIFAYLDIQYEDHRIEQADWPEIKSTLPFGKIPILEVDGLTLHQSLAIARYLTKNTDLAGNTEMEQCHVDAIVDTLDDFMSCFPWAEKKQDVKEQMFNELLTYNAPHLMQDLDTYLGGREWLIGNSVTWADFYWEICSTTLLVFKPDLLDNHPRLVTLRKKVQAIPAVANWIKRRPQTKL
# Test Description: H-PGDS RapidFire high throughput mass spectrometry assay
# Assay type: biochemical
# Condition Label: inhibition of conversion of PGH2 to PGD2 by H-PGDS; mean pIC50; read-out: Potency Range (mean pIC50) (converted)
Listing: IC50 of selected molecules

# Molecule, Subject Of Test, IC50
rows = [
    ("O=C(N[C@H]1CCNC1=O)c1cnc(-c2cccc(Cl)c2F)s1", "human H-PGDS (Homo sapiens, UniProt O60760)", "10.2 to 100 nM"),
    ("O=C(N[C@H]1CCNC1=O)c1cnc(-c2ccncc2)s1", "human H-PGDS (Homo sapiens, UniProt O60760)", "1020 to 10000 nM"),
    ("O=C(N[C@@H]1CCNC1=O)c1cnc(-c2cc(F)cc(Cl)c2)s1", "human H-PGDS (Homo sapiens, UniProt O60760)", "102 to 1000 nM"),
    ("CC1(C)C[C@@H](NC(=O)c2cnc(-c3cc(F)cc(Cl)c3)s2)C(=O)N1 (single isomer, unassigned)", "human H-PGDS (Homo sapiens, UniProt O60760)", "102 to 1000 nM"),
    ("CC1(C)CC(NC(=O)c2cnc(-c3cc(F)cc(Cl)c3)s2)C(=O)N1 (racemic)", "human H-PGDS (Homo sapiens, UniProt O60760)", "10.2 to 100 nM"),
    ("O=C(NC1CCNC1=O)c1cnc(-c2cccc(Cl)c2)s1 (racemic)", "human H-PGDS (Homo sapiens, UniProt O60760)", "10.2 to 100 nM"),
    ("O=C(N[C@H]1CCNC1=O)c1cnc(-c2cc(F)cc(Cl)c2)s1", "human H-PGDS (Homo sapiens, UniProt O60760)", "1.02 to 10 nM"),
    ("C[C@H]1[C@H](C)NC(=O)[C@@H]1NC(=O)c1cnc(-c2cc(F)cc(Cl)c2)s1 [Example 35]", "human H-PGDS (Homo sapiens, UniProt O60760)", "102 to 1000 nM"),
    ("C[C@@H]1C[C@H](NC(=O)c2cnc(-c3cc(F)cc(Cl)c3)s2)C(=O)N1", "human H-PGDS (Homo sapiens, UniProt O60760)", "10.2 to 100 nM"),
    ("C[C@H]1C[C@@H](NC(=O)c2cnc(-c3cc(F)cc(Cl)c3)s2)C(=O)N1", "human H-PGDS (Homo sapiens, UniProt O60760)", "10.2 to 100 nM"),
    ("C[C@H]1CNC(=O)[C@H]1NC(=O)c1cnc(-c2cc(F)cc(Cl)c2)s1", "human H-PGDS (Homo sapiens, UniProt O60760)", "10.2 to 100 nM"),
    ("O=C(N[C@@H]1C(=O)N[C@H]2COC[C@H]21)c1cnc(-c2cc(F)cc(Cl)c2)s1 [Example 53]", "human H-PGDS (Homo sapiens, UniProt O60760)", "10.2 to 100 nM"),
    ("CC1(C)CC(NC(=O)c2cnc(-c3cc(F)cc(Cl)c3)s2)C(=S)N1 (racemic)", "human H-PGDS (Homo sapiens, UniProt O60760)", "1.02 to 10 nM"),
    ("O=C(N[C@H]1CCNC1=O)c1cnc(-c2cc(F)cc(C(F)F)c2)s1", "human H-PGDS (Homo sapiens, UniProt O60760)", "1.02 to 10 nM"),
    ("Cc1nc(-c2cccc(Cl)c2)sc1C(=O)N[C@H]1CCNC1=O", "human H-PGDS (Homo sapiens, UniProt O60760)", "10.2 to 100 nM"),
    ("CC1(C)CC(NC(=O)c2cnc(-c3cc(F)cc(Cl)c3)[se]2)C(=O)N1 (racemic)", "human H-PGDS (Homo sapiens, UniProt O60760)", "10.2 to 100 nM"),
    ("NC(=O)CN1CC[C@H](NC(=O)c2cnc(-c3cc(F)cc(F)c3)s2)C1=O", "human H-PGDS (Homo sapiens, UniProt O60760)", "102 to 1000 nM"),
]

---

Listing: IC50 of selected compounds
# Subject Of Test: human H-PGDS (Homo sapiens)
# Construct: Full length human H-PGDS cDNA (Invitrogen Ultimate ORF IOH13026) was amplified by PCR; 6-His (N); TEV protease cleavage site (N); made in house; host or cells: E. coli BL21 (DE3*) for H-PGDS; Sf9 insect cells (baculovirus) for COX-2
# Test Description: H-PGDS RapidFire high throughput mass spectrometry assay
# Format: biochemical
# Condition Label: inhibition of conversion of PGH2 to PGD2 by H-PGDS; mean pIC50; read-out: Potency Range (mean pIC50) (converted)

# Compound, Subject Of Test, IC50
measured = [
    ("O=C(N[C@@H]1CC2(COC2)NC1=O)c1cnc(-c2cc(F)cc(Cl)c2)s1", "human H-PGDS (Homo sapiens)", "102 to 1000 nM"),
    ("O=C(N[C@H]1C(=O)N[C@@H]2CCC[C@@H]21)c1cnc(-c2cc(F)cc(Cl)c2)s1 (racemic) [Example 49]", "human H-PGDS (Homo sapiens)", "1.02 to 10 nM"),
    ("O=C1NCC[C@@H]1NC(=S)c1cnc(-c2cc(F)cc(Cl)c2)s1", "human H-PGDS (Homo sapiens)", "1.02 to 10 nM"),
    ("COc1cccc(-c2ncc(C(=O)N[C@H]3CCNC3=O)s2)c1", "human H-PGDS (Homo sapiens)", "10.2 to 100 nM"),
    ("O=C(N[C@H]1CCNC1=O)c1cnc(-c2cc(Cl)ccc2F)s1", "human H-PGDS (Homo sapiens)", "10.2 to 100 nM"),
    ("O=C(NN1CCNC1=O)c1cnc(-c2cc(F)cc(Cl)c2)s1", "human H-PGDS (Homo sapiens)", "10.2 to 100 nM"),
    ("O=C(NC1CC2(CCC2)NC1=O)c1cnc(-c2cc(F)cc(Cl)c2)s1 (racemic)", "human H-PGDS (Homo sapiens)", "10.2 to 100 nM"),
    ("O=C(N[C@H]1C(=O)N[C@@H]2CCC[C@@H]21)c1cnc(-c2cc(F)cc(Cl)c2)s1 [Example 50]", "human H-PGDS (Homo sapiens)", "102 to 1000 nM"),
    ("CN(C(=O)c1cnc(-c2cc(F)cc(Cl)c2)s1)[C@@H]1CCNC1=O", "human H-PGDS (Homo sapiens)", "> 10000 nM"),
    ("O=C(N[C@@H]1C(=O)N[C@@H]2CCC[C@H]12)c1cnc(-c2cc(F)cc(Cl)c2)s1", "human H-PGDS (Homo sapiens)", "10.2 to 100 nM"),
    ("O=C(N[C@H]1CCNC1=O)c1cnc(-c2ccccn2)s1", "human H-PGDS (Homo sapiens)", "102 to 1000 nM"),
    ("CCC1(CC)CNC(=O)[C@H]1NC(=O)c1cnc(-c2cc(F)cc(Cl)c2)s1", "human H-PGDS (Homo sapiens)", "10.2 to 100 nM"),
    ("CC1(C)C[C@@H](NC(=O)c2cnc(-c3cc(F)cc(Cl)c3)s2)C(=S)N1", "human H-PGDS (Homo sapiens)", "102 to 1000 nM"),
    ("CC1(NC(=O)c2cnc(-c3cc(F)cc(Cl)c3)s2)CCNC1=O (racemic)", "human H-PGDS (Homo sapiens)", "102 to 1000 nM"),
    ("C[C@@H]1CNC(=O)[C@H]1NC(=O)c1cnc(-c2cc(F)cc(C(F)F)c2)s1", "human H-PGDS (Homo sapiens)", "1.02 to 10 nM"),
    ("O=C(N[C@H]1CC2(COC2)NC1=O)c1cnc(-c2cc(F)cc(Cl)c2)s1", "human H-PGDS (Homo sapiens)", "1.02 to 10 nM"),
    ("CN1CCC(NC(=O)c2cnc(-c3cc(F)cc(Cl)c3)s2)C1=O (racemic)", "human H-PGDS (Homo sapiens)", "10.2 to 100 nM"),
    ("O=C(N[C@H]1CCNC1=O)c1cnc(-c2cc(Cl)cc(Cl)c2)s1", "human H-PGDS (Homo sapiens)", "1.02 to 10 nM"),
    ("O=C(N[C@H]1CCNC1=[Se])c1cnc(-c2cc(F)cc(Cl)c2)s1", "human H-PGDS (Homo sapiens)", "1.02 to 10 nM"),
    ("CN(C(=O)c1cnc(-c2cc(F)cc(Cl)c2)s1)[C@H]1CCNC1=O", "human H-PGDS (Homo sapiens)", "1020 to 10000 nM"),
    ("Cc1cccc(-c2ncc(C(=O)N[C@H]3CCNC3=O)s2)n1", "human H-PGDS (Homo sapiens)", "102 to 1000 nM"),
    ("C[C@@H]1C[C@@H](NC(=O)c2cnc(-c3cc(F)cc(Cl)c3)s2)C(=O)N1", "human H-PGDS (Homo sapiens)", "102 to 1000 nM"),
    ("O=C(NC1CC2(COC2)NC1=O)c1cnc(-c2cc(F)cc(Cl)c2)s1 (racemic)", "human H-PGDS (Homo sapiens)", "1.02 to 10 nM"),
    ("CC1(C)C[C@H](NC(=O)c2cnc(-c3cc(F)cc(Cl)c3)s2)C(=S)N1", "human H-PGDS (Homo sapiens)", "1.02 to 10 nM"),
    ("CC1(C)C[C@H](NC(=O)c2cnc(-c3cc(F)cc(Cl)c3)s2)C(=O)N1 (single isomer, unassigned)", "human H-PGDS (Homo sapiens)", "10.2 to 100 nM"),
    ("O=C1NCC[C@@H]1NS(=O)(=O)c1cnc(-c2ccccc2)s1", "human H-PGDS (Homo sapiens)", "> 10000 nM"),
    ("CCC1(CC)CNC(=O)C1NC(=O)c1cnc(-c2cc(F)cc(Cl)c2)s1 (racemic)", "human H-PGDS (Homo sapiens)", "102 to 1000 nM"),
    ("O=C(N[C@@H]1CC2(CC2)NC1=O)c1cnc(-c2cc(F)cc(Cl)c2)s1", "human H-PGDS (Homo sapiens)", "102 to 1000 nM"),
    ("Cc1ccc(-c2ncc(C(=O)N[C@H]3CCNC3=O)s2)cc1", "human H-PGDS (Homo sapiens)", "1020 to 10000 nM"),
    ("O=C(N[C@@H]1CC2(CCC2)NC1=O)c1cnc(-c2cc(F)cc(Cl)c2)s1", "human H-PGDS (Homo sapiens)", "102 to 1000 nM"),
    ("C[C@]1(NC(=O)c2cnc(-c3cc(F)cc(Cl)c3)s2)CCNC1=O", "human H-PGDS (Homo sapiens)", "10.2 to 100 nM"),
    ("Cc1cccc(-c2ncc(C(=O)N[C@H]3CCNC3=O)s2)c1", "human H-PGDS (Homo sapiens)", "1.02 to 10 nM"),
    ("COc1ccc(CN2CCC(C)(NC(=O)c3cnc(-c4cc(F)cc(Cl)c4)s3)C2=O)cc1 (racemic)", "human H-PGDS (Homo sapiens)", "102 to 1000 nM"),
    ("Cc1ccnc(-c2ncc(C(=O)N[C@H]3CCNC3=O)s2)n1", "human H-PGDS (Homo sapiens)", "102 to 1000 nM"),
]
